Below, each entry is listed alongside its reported Binding affinity (RU).
Target: acetylcholine receptor
Assay: SPR, receptor immobilized, peptide 10 uM

BINDER: REAGK [5mer-790]
Binding affinity (RU): 33 RU
--
BINDER: RRRYQR [6mer-1-167]
Binding affinity (RU): 122 RU
--
BINDER: KHEHK [5mer-1053]
Binding affinity (RU): 27 RU
--
BINDER: KEDNKR [6mer-2-876]
Binding affinity (RU): 17 RU
